subject_of_test: mouse 11β-HSD1 (Mus musculus)
Construct: The obtained PCR products of about 0.9 kbp, 1.2 kbp, and 0.9 kbp were subcloned into an expression vector pcDNA3.1+/Zeo; expressed in transfected cells
Sequence (P50172 whole entry): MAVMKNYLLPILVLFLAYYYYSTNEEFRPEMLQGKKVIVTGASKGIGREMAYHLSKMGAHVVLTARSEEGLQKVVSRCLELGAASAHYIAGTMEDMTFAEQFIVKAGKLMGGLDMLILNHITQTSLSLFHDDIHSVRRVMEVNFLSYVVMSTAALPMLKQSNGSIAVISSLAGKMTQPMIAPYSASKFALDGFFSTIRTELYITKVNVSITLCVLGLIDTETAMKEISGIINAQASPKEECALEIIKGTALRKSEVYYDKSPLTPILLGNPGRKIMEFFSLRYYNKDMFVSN
assay_summary: Enzyme inhibitory activity, mouse 11β-HSD1 (lysate of stably expressing CHO-K1 cells, cortisol by competitive ELISA)
Assay type: biochemical
details: Table 2; mouse 11β-HSD1, cell lysate, 37° C. for 1 hour; read-out: m HSD1 in vitro assay (IC50 uM)
Experimental: 1. Human 11β-HSD1-, Human 11β-HSD2- and Mouse 11β-HSD1-Gene Clonings and Establishment of Stably Expressing Cells […] An enzymatic reaction was conducted using a polystyrene 96-well plate. […] Cortisol that was present in the reaction solution was determined by a competitive ELISA shown below. […]
Rule for this label: TRUE means IC50 is less than 0.4 µM; FALSE means IC50 is at least 0.4 µM.

1. CC1(C)C(=O)N(C2C3CC4CC(C3)CC2C4)N1Cc1ccc(F)cc1F (stereo not drawn); TRUE
2. CC1(C)C(=O)N(C2C3CC4CC(C3)CC2C4)N1Cc1ccc(F)cc1Cl (stereo not drawn); TRUE
3. CC1(C)C(=O)N(C2C3CC4CC(C3)CC2C4)N1c1cccc(Cl)c1Cl (stereo not drawn); FALSE
4. COc1ccccc1CN1N(C2C3CC4CC(C3)CC2C4)C(=O)C1(C)C (stereo not drawn); FALSE
5. CC1(C)C(=O)N([C@H]2C3CC4CC2C[C@](Cl)(C4)C3)N1c1ccccc1O; TRUE
6. CC1(C)C(=O)N(C2CCCCCC2)N1Cc1ccccc1Cl; FALSE
7. CC1(C)C(=O)N(C2C3CC4CC(C3)CC2C4)N1Cc1cccc(I)c1 (stereo not drawn); TRUE
8. CC1(C)C(=O)N(C2CCCCCCC2)N1Cc1cc(Cl)ccc1Cl; TRUE
9. CC1(C)C(=O)N(C2CCCCCCC2)N1Cc1cc(F)ccc1Cl; TRUE

* * *

subject_of_test: human 11β-HSD1 (Homo sapiens)
Construct: The obtained PCR products of about 0.9 kbp, 1.2 kbp, and 0.9 kbp were subcloned into an expression vector pcDNA3.1+/Zeo; expressed in transfected cells
Sequence (P28845 whole entry): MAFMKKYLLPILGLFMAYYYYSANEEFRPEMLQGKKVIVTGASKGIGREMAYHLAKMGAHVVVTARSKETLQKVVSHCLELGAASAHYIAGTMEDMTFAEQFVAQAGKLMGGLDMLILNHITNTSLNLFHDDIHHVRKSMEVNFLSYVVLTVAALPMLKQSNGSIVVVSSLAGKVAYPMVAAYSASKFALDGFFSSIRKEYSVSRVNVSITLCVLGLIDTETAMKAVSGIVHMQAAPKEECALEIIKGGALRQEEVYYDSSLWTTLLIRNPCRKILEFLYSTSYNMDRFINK
assay_summary: Enzyme inhibitory activity, human 11β-HSD1 (lysate of stably expressing HEK293 cells, cortisol by competitive ELISA)
Assay type: biochemical
details: Table 2; human 11β-HSD1, cell lysate, 37° C. for 1 hour; read-out: h HSD1 in vitro assay (IC50 uM)
List of IC50 values.
readout_type: IC50 (µM)

1. CC1(C)C(=O)N(C2C3CC4CC(C3)CC2C4)N1Cc1cccc(F)c1F (stereo not shown) [Example 19]; 0.47
2. CC1(C)C(=O)N(C2C3CC4CC(C3)CC2C4)N1C(=O)c1cccc(Br)c1 (stereo not shown) [Example 113]; 0.42
3. Cc1ccc(C(=O)N2N(C3C4CC5CC(C4)CC3C5)C(=O)C2(C)C)cc1 (stereo not shown) [Example 114]; 0.54
4. Cc1ccc(CN2N(C3C4CC5CC(C4)CC3C5)C(=O)C2(C)C)c(C)c1 (stereo not shown) [Example 55]; 0.067

* * *

subject_of_test: mouse 11β-HSD1 (Mus musculus)
Construct: The obtained PCR products of about 0.9 kbp, 1.2 kbp, and 0.9 kbp were subcloned into an expression vector pcDNA3.1+/Zeo; expressed in transfected cells
assay_summary: Enzyme inhibitory activity, mouse 11β-HSD1 (lysate of stably expressing CHO-K1 cells, cortisol by competitive ELISA)
Assay type: biochemical
details: Table 2; mouse 11β-HSD1, cell lysate, 37° C. for 1 hour; read-out: m HSD1 in vitro assay (IC50 uM)
So basically, the class depends on measured IC50, and the ranges are low end (below 0.2 µM), middle (0.2 µM to below 0.4 µM), high end (0.4 µM or more)

1) COc1ccccc1N1N([C@H]2C3CC4CC2C[C@](Cl)(C4)C3)C(=O)C1(C)C [Example 250]; low end
2) CC1(C)C(=O)N(C2C3CC4CC(C3)CC2C4)N1Cc1ccccc1I (centres unmarked) [Example 40]; low end
3) CC1(C)C(=O)N(C2C3CC4CC(C3)CC2C4)N1Cc1cc(F)ccc1Cl (centres unmarked) [Example 41]; low end
4) CC1(C)C(=O)N(C2C3CC4CC(C3)CC2C4)N1Cc1ccc(Cl)cc1Cl (centres unmarked) [Example 52]; low end
5) CC1(C)C(=O)N(C2CCCCCCC2)N1Cc1cccc(Cl)c1Cl [Example 74]; low end
6) CC1(C)C(=O)N([C@H]2C3CC4CC2C[C@](O)(C4)C3)N1Cc1ccccc1C(F)(F)F [Example 66]; high end
7) CC1(C)C(=O)N(C2C3CC4CC(C3)CC2C4)N1CCc1ccccc1 (centres unmarked) [Example 266]; high end
8) CC1(C)C(=O)N(C2CCCCCCC2)N1Cc1ccccc1Cl [Example 73]; low end
9) CC1(C)C(=O)N(C2CCCCCCC2)N1c1cccc(Cl)c1Cl [Example 221]; middle
10) CC1(C)C(=O)N(C2CC3CCC2C3)N1c1cccc(Cl)c1Cl (centres unmarked) [Example 224]; middle
11) CC1(C)C(=O)N(C2C3CC4CC(C3)CC2C4)N1Cc1c(F)cccc1Cl (centres unmarked) [Example 46]; high end
12) CC1(C)C(=O)N(C2C3CC4CC(C3)CC2C4)N1CCCc1ccccc1 (centres unmarked) [Example 261]; high end
13) CC1(C)C(=O)N([C@H]2C3CC4CC2C[C@](C(=O)O)(C4)C3)N1c1cccc2ccccc12 [Example 274]; middle
14) CC1(C)C(=O)N([C@H]2C3CC4CC2C[C@](Cl)(C4)C3)N1c1cccc(Cl)c1Cl [Example 251]; high end
15) Cc1ccc(CN2N(C3C4CC5CC(C4)CC3C5)C(=O)C2(C)C)cc1 (centres unmarked) [Example 14]; low end
16) CC1(C)C(=O)N([C@H]2C3CC4CC2C[C@](O)(C4)C3)N1c1ccc(N)cc1 [Example 235]; high end
17) CC1(C)C(=O)N([C@H]2C3CC4CC2C[C@](O)(C4)C3)N1c1ccccc1O [Example 233]; middle
18) CC1(C)C(=O)N([C@H]2C3CC4CC2C[C@](Cl)(C4)C3)N1c1ccc(F)c2ccccc12 [Example 255]; low end
19) CC1(C)C(=O)N(C2C3CC4CC(C3)CC2C4)N1c1ccc(N)cc1 (centres unmarked) [Example 183]; high end
20) COc1ccccc1N1N(C2CCCCCCC2)C(=O)C1(C)C [Example 220]; low end
21) CC1(C)C(=O)N([C@H]2C3CC4CC2C[C@](O)(C4)C3)N1c1ccc(F)c2ccccc12 [Example 238]; middle
22) CC1(C)C(=O)N(C2CCCCCCC2)N1C(=O)c1cccc(Cl)c1 [Example 150]; high end
23) CC1(C)C(=O)N(C2C3CC4CC2CC(C(N)=O)(C4)C3)N1Cc1ccccc1Cl (centres unmarked) [Example 95]; middle
24) CC1(C)C(=O)N([C@H]2C3CC4CC2C[C@](O)(C4)C3)N1Cc1cc(F)ccc1Cl [Example 67]; middle
25) CC1(C)C(=O)N(C2C3CC4CC(C3)CC2C4)N1Cc1ccc(F)cc1C(F)(F)F (centres unmarked) [Example 48]; high end
26) CC1(C)C(=O)N(C2CCCCCC2)N1Cc1cc(Cl)ccc1Cl [Example 85]; middle
27) COCOc1ccccc1N1N(C2C3CC4CC(C3)CC2C4)C(=O)C1(C)C (centres unmarked) [Example 218]; high end
28) Cc1ccccc1N1N(C2C3CC4CC(C3)CC2C4)C(=O)C1(C)C (centres unmarked) [Example 192]; low end
29) CC1(C)C(=O)N([C@H]2C3CC4CC2C[C@@](O)(C4)C3)N1c1ccc(F)c2ccccc12 [Example 249]; high end
30) CC1(C)C(=O)N(C2C3CC4CC2CC(C(N)=O)(C4)C3)N1c1cccc2ccccc12 (centres unmarked) [Example 273]; low end
31) CC1(C)C(=O)N(C2C3CC4CC(C3)CC2C4)N1Cc1ccccc1-c1ccccc1 (centres unmarked) [Example 49]; middle
32) CC1(C)C(=O)N(C2C3CC4CC(C3)CC2C4)N1Cc1ccccc1 (centres unmarked) [Example 12]; low end
